Listed molecules paired with reported IC50 ratio
experiment: Ratio of inhibitory concentration of Human Jurkat leukemia A (JLA) and Human Jurkat leukemia C (JLC); type: functional

>  <molecule>
CN(C)CCNC(=O)c1cccc2c(C(=O)NCCN(C)C)c3sc4ccccc4c3nc12

>  <IC50 ratio>
0.5

$$$$
>  <molecule>
CN(C)CCNC(=O)c1cccc2nc3sc4ccccc4c3nc12

>  <IC50 ratio>
1.9

$$$$
>  <molecule>
CN(C)CCNC(=O)c1cccc2nc3c(nc12)-c1ccccc1C3

>  <IC50 ratio>
1

$$$$
>  <molecule>
CN(C)CCNC(=O)c1cccc2cc3c(nc12)-c1ccccc1C3

>  <IC50 ratio>
1.8

$$$$
>  <molecule>
CN(C)CCNC(=O)c1cccc2[nH]c3c4ccccc4nc-3nc12

>  <IC50 ratio>
0.9

$$$$
>  <molecule>
CN(C)CCNC(=O)c1cc(Cl)cc2nc3c(nc12)oc1ccccc13

>  <IC50 ratio>
1.2

$$$$
>  <molecule>
CN(C)CCNC(=O)c1cccc2nc3c(nc12)-c1ccccc1C3=O

>  <IC50 ratio>
1

$$$$
>  <molecule>
CN(C)CCNC(=O)c1cc(Cl)cc2[nH]c3nc4ccccc4c-3nc12

>  <IC50 ratio>
0.8

$$$$
>  <molecule>
COc1cc(NS(C)(=O)=O)ccc1Nc1c2ccccc2nc2ccccc12 [AMSACRINE]

>  <IC50 ratio>
85

$$$$
>  <molecule>
CN(C)CCNC(=O)c1cccc2cc3[nH]c4ccccc4c3nc12

>  <IC50 ratio>
1

$$$$
>  <molecule>
CN(C)CCNC(=O)c1cccc2cc3c(nc12)C(=O)c1ccccc1-3

>  <IC50 ratio>
0.9

$$$$
>  <molecule>
CC[C@@]1(O)C(=O)OCc2c1cc1n(c2=O)Cc2cc3ccccc3nc2-1 [CAMPTOTHECIN]

>  <IC50 ratio>
2

$$$$
